- test_name: Pharmacokinetic study (PK) after single i.v. and i.p. administration
- Assay type: in vivo, male CD-1 mice
- test_context: male, CD-1, mouse, in vivo, iv, 2 mg/kg
metric_name: AUC (ng·h/mL)

record_smiles | readout_units | endpoint_value
N=C(N)NCCC[C@@H]1NC(=O)[C@@H]2CSSC[C@H](NC(=O)[C@H](Cc3ccc4ccccc4c3)NC(=O)[C@H](CCCNC(=N)N)NC(=O)[C@H](CCCNC(=N)N)NC(=O)[C@H]3CCCN3C(=O)CNC1=O)C(=O)N[C@@H](Cc1ccc(O)cc1)C(=O)N[C@@H](CCCNC(N)=O)C(=O)N[C@@H](CCCCN)C(=O)N1CCC[C@@H]1C(=O)N1CCC[C@H]1C(=O)N[C@@H](Cc1ccc(O)cc1)C(=O)N[C@@H](CCCNC(=N)N)C(=O)N[C@@H](CCCNC(N)=O)C(=O)N2 | ng·h/mL | 953

---

- assay_target: CXCR4 (Homo sapiens, UniProt P61073)
- Sequence (P61073 whole entry): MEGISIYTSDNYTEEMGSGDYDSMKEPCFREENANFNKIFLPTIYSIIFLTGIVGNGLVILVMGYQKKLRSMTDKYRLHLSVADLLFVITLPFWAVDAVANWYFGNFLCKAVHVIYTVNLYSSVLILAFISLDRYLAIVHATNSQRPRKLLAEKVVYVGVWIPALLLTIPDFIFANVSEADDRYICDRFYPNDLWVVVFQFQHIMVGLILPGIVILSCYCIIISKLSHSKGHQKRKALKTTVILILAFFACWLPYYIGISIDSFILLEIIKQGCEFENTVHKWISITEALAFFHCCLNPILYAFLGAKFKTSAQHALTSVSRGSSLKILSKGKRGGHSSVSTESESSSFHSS
- test_name: Ca2+-assay method 2 (Flexstation, SDF-1 induced calcium mobilization)
- Type: cell-based
- Parameters: expressed in transfected cells; host or cells: mouse pre-B cell line 300-19
- test_context: method 2 (Ex. 54-160), mouse pre-B cell line 300-19 with human CXCR4, 10 nM SDF-1; read-out: IC50 (nM) Ca^2+ assay
Bridge positions count the residues as written; N and C are the ends. Square brackets hold non-standard residues; d marks the D form. Peptide text beside a SMILES is read from it. 2Nal = N[C@@H](Cc1ccc2ccccc2c1)C(=O)O; Cit = NC(=O)NCCC[C@H](N)C(=O)O

compound | IC50 (nM)
N=C(N)NCCC[C@@H]1NC(=O)[C@@H]2CSSC[C@H](NC(=O)[C@H](Cc3ccc4ccccc4c3)NC(=O)[C@H](CCCNC(=N)N)NC(=O)[C@H](CCCNC(=N)N)NC(=O)[C@H]3CCCN3C(=O)CNC1=O)C(=O)N[C@@H](Cc1ccc(O)cc1)C(=O)N[C@@H](CCC(N)=O)C(=O)N[C@@H](CCCCN)C(=O)N1CCC[C@@H]1C(=O)N1CCC[C@H]1C(=O)N[C@@H](Cc1ccc(O)cc1)C(=O)N[C@@H](CCCNC(=N)N)C(=O)N[C@@H](CCCCN)C(=O)N2 [Ex. 94] (cyclo(YRKCRG[dP]RR[2Nal]CYQK[dP]P); disulfide 4-11) | 2.5
N=C(N)NCCC[C@@H]1NC(=O)[C@@H]2CSSC[C@H](NC(=O)[C@H](Cc3c[nH]c4ccccc34)NC(=O)[C@H](CCCNC(=N)N)NC(=O)[C@H](Cc3c[nH]cn3)NC(=O)[C@H]3CCCN3C(=O)CNC1=O)C(=O)N[C@@H](Cc1ccc(O)cc1)C(=O)N[C@@H](CCCNC(N)=O)C(=O)N[C@@H](CCCCN)C(=O)N1CCC[C@@H]1C(=O)N1CCC[C@H]1C(=O)N[C@@H](Cc1ccc(O)cc1)C(=O)N[C@@H](CCCNC(=N)N)C(=O)N[C@@H](CCCNC(N)=O)C(=O)N2 [Ex. 137] (cyclo(YR[Cit]CRG[dP]HRWCY[Cit]K[dP]P); disulfide 4-11) | 1.28

---

- Tested on: 'CCR5' cells / Hut/4-3 cells co-cultivation
- test_name: FIGS-Assay
- Format: cell-based
- test_context: 200 nM peptide, 48 hours of co-cultivation
Bridge positions count the residues as written; N and C are the ends. Square brackets hold non-standard residues; d marks the D form. Peptide text beside a SMILES is read from it. 2Nal = N[C@@H](Cc1ccc2ccccc2c1)C(=O)O; Cit = NC(=O)NCCC[C@H](N)C(=O)O

compound | assay_target | FIGS % inhibition at 200 nM, %
N=C(N)NCCC[C@@H]1NC(=O)[C@@H]2CSSC[C@H](NC(=O)[C@H](Cc3ccc4ccccc4c3)NC(=O)[C@H](CCCNC(=N)N)NC(=O)[C@H](CCCNC(=N)N)NC(=O)[C@H]3CCCN3C(=O)CNC1=O)C(=O)N[C@@H](Cc1ccc(O)cc1)C(=O)N[C@@H](CCCNC(N)=O)C(=O)N[C@@H](CCCCN)C(=O)N1CCC[C@@H]1C(=O)N1CCC[C@H]1C(=O)N[C@@H](Cc1ccc(O)cc1)C(=O)N[C@@H](CCCNC(=N)N)C(=O)N[C@@H](CCCNC(N)=O)C(=O)N2 [Ex. 51] | 'CCR5' cells / Hut/4-3 cells co-cultivation | 93.9
N=C(N)NCCC[C@@H]1NC(=O)CNC(=O)CNC(=O)[C@H](CCCNC(=N)N)NC(=O)[C@@H]2CSSC[C@H](NC(=O)[C@H](Cc3ccc4ccccc4c3)NC(=O)[C@H](CCCNC(=N)N)NC1=O)C(=O)N[C@@H](Cc1ccc(O)cc1)C(=O)N[C@@H](CCCNC(N)=O)C(=O)N[C@@H](CCCCN)C(=O)N1CCC[C@@H]1C(=O)N1CCC[C@H]1C(=O)N[C@@H](Cc1ccc(O)cc1)C(=O)N[C@@H](CCCNC(=N)N)C(=O)N[C@@H](CCCNC(N)=O)C(=O)N2 [Ex. 52] (cyclo(YR[Cit]CRGGRR[2Nal]CY[Cit]K[dP]P); disulfide 4-11) | 'CCR5' cells / Hut/4-3 cells co-cultivation | 95.4
CC(C)[C@@H]1NC(=O)[C@H](CCCNC(=N)N)NC(=O)[C@@H]2CSSC[C@H](NC(=O)[C@H](Cc3ccc4ccccc4c3)NC(=O)[C@H](CCCNC(=N)N)NC(=O)[C@H](CCCNC(=N)N)NC(=O)CNC1=O)C(=O)N[C@@H](Cc1ccc(O)cc1)C(=O)N[C@@H](CCCNC(N)=O)C(=O)N[C@@H](CCCCN)C(=O)N1CCC[C@@H]1C(=O)N1CCC[C@H]1C(=O)N[C@@H](Cc1ccc(O)cc1)C(=O)N[C@@H](CCCNC(=N)N)C(=O)N[C@@H](CCCNC(N)=O)C(=O)N2 [compound 53] (cyclo(YR[Cit]CRVGRR[2Nal]CY[Cit]K[dP]P); disulfide 4-11) | 'CCR5' cells / Hut/4-3 cells co-cultivation | 91.8
CC(C)[C@@H]1NC(=O)[C@H](CCCNC(N)=O)NC(=O)[C@H](CCCNC(=N)N)NC(=O)[C@H](Cc2ccc(O)cc2)NC(=O)[C@@H]2CCCN2C(=O)[C@H]2CCCN2C(=O)[C@H](CCCCN)NC(=O)[C@H](CCCNC(N)=O)NC(=O)[C@H](Cc2ccc(O)cc2)NC(=O)[C@H](C(C)C)NC(=O)[C@H](Cc2ccc3ccccc3c2)NC(=O)[C@H](CCCNC(=N)N)NC(=O)[C@H](CCCNC(=N)N)NC(=O)[C@H]2CCCN2C(=O)CNC(=O)[C@H](CCCNC(=N)N)NC1=O [compound 45] (cyclo(YR[Cit]VRG[dP]RR[2Nal]VY[Cit]K[dP]P)) | 'CCR5' cells / Hut/4-3 cells co-cultivation | 65.1
